Each item that follows carries a reported melting point.
Observable: melting point (°C)

[
  {
    "Molecule": "NC(=S)c1nn(-c2c(Cl)cc(C(F)(F)F)cc2Cl)c(N)c1SC(F)(F)F",
    "Observable": "melting point",
    "Uom": "°C",
    "Reported measurement": 182
  },
  {
    "Molecule": "C[S+]([O-])c1c(C(N)=S)nn(-c2ccc(C(F)(F)F)cc2Cl)c1N (stereo not shown)",
    "Observable": "melting point",
    "Uom": "°C",
    "Reported measurement": 153.5
  },
  {
    "Molecule": "CC[S+]([O-])c1c(C(N)=S)nn(-c2c(Cl)cc(OC(F)(F)F)cc2Cl)c1N (stereo not shown)",
    "Observable": "melting point",
    "Uom": "°C",
    "Reported measurement": 102
  },
  {
    "Molecule": "CSc1c(C(N)=S)nn(-c2c(Cl)cc(C(F)(F)F)cc2Cl)c1N",
    "Observable": "melting point",
    "Uom": "°C",
    "Reported measurement": 161
  },
  {
    "Molecule": "C[S+]([O-])c1c(C(N)=S)nn(-c2c(Cl)cc(C(F)(F)F)cc2Cl)c1N (stereo not shown)",
    "Observable": "melting point",
    "Uom": "°C",
    "Reported measurement": 192
  },
  {
    "Molecule": "CC[S+]([O-])c1c(C(N)=S)nn(-c2c(Cl)cc(C(F)(F)F)cc2Cl)c1N (stereo not shown)",
    "Observable": "melting point",
    "Uom": "°C",
    "Reported measurement": 167
  },
  {
    "Molecule": "C[S+]([O-])c1c(C(N)=S)nn(-c2c(Cl)cc(OC(F)(F)F)cc2Cl)c1N (stereo not shown)",
    "Observable": "melting point",
    "Uom": "°C",
    "Reported measurement": 137
  },
  {
    "Molecule": "C[S+]([O-])c1c(C(N)=S)nn(-c2c(Cl)cc(C(F)(F)F)cc2Br)c1N (stereo not shown)",
    "Observable": "melting point",
    "Uom": "°C",
    "Reported measurement": 188.5
  },
  {
    "Molecule": "CS(=O)(=O)c1c(C(N)=S)nn(-c2c(Cl)cc(C(F)(F)F)cc2Cl)c1N",
    "Observable": "melting point",
    "Uom": "°C",
    "Reported measurement": 231
  },
  {
    "Molecule": "CC[S+]([O-])c1c(C(N)=S)nn(-c2c(Cl)cc(C(F)(F)F)cc2Br)c1N (stereo not shown)",
    "Observable": "melting point",
    "Uom": "°C",
    "Reported measurement": 113.5
  }
]

Source of measurements: patent US20020016468A1
